The measurements presented in this section are drawn from paper PMC12040169.

- procedure text: in vitro
- condition info: human, hela cells, % viability
Under this convention, Satisfied denotes viability at 28.5 h, 10 µM strictly below 90% and Not satisfied denotes viability at 28.5 h, 10 µM at or above 90%.

Does CS(=O)(=O)c1sc(C(=O)NC(=S)Nc2cccc(C(F)(F)F)c2)c2c1C=CCC2 [CBK005654] have viability at 28.5 h, 10 µM strictly under 90%?
Not satisfied

Below 90% on viability at 28.5 h, 10 µM? Entry COc1ccccc1N1CCN(c2cc(N3CCNCC3)ccc2[N+](=O)[O-])CC1 [CBK293931]
Satisfied

In plain terms, does COc1ccc(OC)c2[nH]c(C(=O)N3CCCC34CC=CC4)cc12 [CBK282814] come in under 90% for viability at 28.5 h, 10 µM?
Satisfied

# strict comparison: is reported viability at 28.5 h, 10 µM < 90%? input = CC(=O)Nc1cccc(C(=O)NCC(c2cccs2)N(C)C)c1 (stereo not drawn) [CBK304583]
Satisfied

Does the reported viability at 28.5 h, 10 µM of the following molecule sit strictly below 90%? Cc1ccc2c(c1)oc(=O)n2CCNC(=O)Cc1c[nH]c2ccccc12 [CBK284473]
Not satisfied

Criterion: viability at 28.5 h, 10 µM strictly below 90%. Is it met by CCOC(=O)C1(C2CCCCC2)CCN(C(=O)CN2C(=O)CSC2=O)CC1 [CBK160993] ?
Not satisfied

###

- procedure text: in vitro
- condition info: human, hela cells, % viability
Assign viability at 28.5 h, 10 µM to each entry below.
# number only, unit % dropped from output

Tell me the measured viability at 28.5 h, 10 µM of `CSc1ccc2cc(CSc3nnc(-c4cccs4)n3CC(=O)O)c(Cl)nc2c1` , please.
91.3

Which value of viability at 28.5 h, 10 µM has been reported for `Cc1ccc(S(=O)(=O)N2CCN(c3ccc([N+](=O)[O-])c(N4CCN(C)CC4)c3)CC2)cc1` in the records?
118

GET /values?readout=viability at 28.5 h, 10 µM&item= `Cc1scc(C(=O)NCc2ccccn2)c1-c1ccccc1`
89

Given `Cc1ccc(C(=O)N2CCN(C)CC2)c(N2CCOCC2)n1` , state its recorded viability at 28.5 h, 10 µM.
100

For the compound CCn1ncc(S(=O)(=O)N2CCCC(c3cccc(-c4cccc(OC)c4)n3)C2)c1C (stereo not drawn) , what viability at 28.5 h, 10 µM is on record?
96.8

Using the record for `COc1ccc2[nH]cc(C3CCN(Cc4nc(C)no4)CC3)c2c1` , report its viability at 28.5 h, 10 µM.
94.6

Which viability at 28.5 h, 10 µM is reported for this compound? `Cc1cc(C)c2c(OCC(=O)NC(C)C)nn(C)c2n1`
87.4

Sample `COc1ccc(C2=C(CC(=O)O)C(=O)CC2)cc1` — what was its viability at 28.5 h, 10 µM?
89.2

// query viability at 28.5 h, 10 µM value for entry NNc1ccc(/C=C/c2ccc(NN)cc2S(=O)(=O)O)c(S(=O)(=O)O)c1 [CBK278163N]
91.1

###

- procedure text: in vitro
- condition info: human, hela cells, % viability
property measured: viability at 28.5 h, 10 µM (%)
All answers are understood in %, so give the number only.

Could you tell me which viability at 28.5 h, 10 µM is on file for COc1ccc([C@@]23CC[C@@H](NC(=O)Nc4ccc(F)c(C#N)c4)C[C@@H]2N(C)CC3)cc1OC [CBK051659T] ?
84

For `CC(C)c1noc([C@@H]2C[C@H](NS(=O)(=O)c3ccc(F)cc3)CN2C)n1` , what is its reported viability at 28.5 h, 10 µM?
114

Fill blank: measured viability at 28.5 h, 10 µM of the compound `CCN(NC(=O)c1ccccc1-n1cccc1)c1ccc(C)cc1` is ____.
110

Param item = Cc1cccnc1C(NC(=O)C1CCN(C(=O)N2CCCC2)CC1)c1cccs1 (stereo not shown) ; retrieve measured viability at 28.5 h, 10 µM.
106

# input compound: `c1cnc2[nH]c(C3CCCC3)c(CN3CCOCC3)c2c1` ; wanted: its viability at 28.5 h, 10 µM
77.5

Entry under review: `CCc1nc2c(OCC(=O)c3ccc(Cl)cc3Cl)cccn2c1N(C)C(=O)C1CC1` . Reported viability at 28.5 h, 10 µM?
89.7

Look up viability at 28.5 h, 10 µM for this compound: `CC1CCN(C(=O)C[C@@H]2O[C@H](CNC(=O)C3CC3)[C@@H](O)[C@H]2O)CC1`
92

I would be grateful if you could share the reported viability at 28.5 h, 10 µM for Cc1ccccc1OC(C)C(=O)Nc1nnc[nH]1 (stereo not shown) .
85.6

What measured viability at 28.5 h, 10 µM goes with `COc1ccc2cc(/C=C(\C#N)c3nc(-c4cc5ccccc5oc4=O)cs3)c(Cl)nc2c1` ?
93.9

Could you share which viability at 28.5 h, 10 µM value was measured for `CC(C)C(=O)N1CCC(n2nc(-c3cccs3)oc2=O)CC1` ?
103

Entry CCc1ccc(C(O)CNC2CCN(c3nccs3)CC2)cc1 (stereo not shown) : reported viability at 28.5 h, 10 µM = ?
94.3

So what's the measured viability at 28.5 h, 10 µM for this one? `C=CCn1c(S)nnc1CCSCc1ccccc1`
95.1

Fill blank: measured viability at 28.5 h, 10 µM of the compound `COC(=O)c1c(NC(=S)NCc2cccs2)sc(C)c1-c1ccccc1` is ____.
97

Fill in the blank: the reported viability at 28.5 h, 10 µM of CC(=O)NC(c1ccccn1)C1CCCN(C(=O)C2CC2C)C1 (stereo not shown) is ____.
84.2

Entry Cc1cccn2cc(CCNC(=O)N3CCOCC3C3CC3)nc12 (stereo not shown) : reported viability at 28.5 h, 10 µM = ?
104

Could you tell me which viability at 28.5 h, 10 µM is on file for `O=C(NCCNc1cnccn1)c1cc(F)cc(Br)c1` ?
99.6

I would be grateful if you could share the reported viability at 28.5 h, 10 µM for `N/C(=N/c1ccccn1)C(F)(F)F` .
90.1

For the compound shown here, CN1CC2(CCCN(Cc3noc(-c4ccccc4)n3)C2)OC1=O (stereo not shown) , give the reported viability at 28.5 h, 10 µM.
93

Query (compound): Cc1nn(C)c2ncc(S(=O)(=O)NC(C)c3cccc(F)c3)cc12 (stereo not shown) ; field requested: viability at 28.5 h, 10 µM
94.9
